Test: calcein-AM signal in unstimulated myeloma cells – cell-based, calcein-AM fluorescence, 48 h, PK04 Diversity Set, profiling panel (AID 1166);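 note: cells grown under basal conditions without added stimulus; test concentration not given here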
Conditions: RPMI8226 myeloma viability, higher = more signal
The following compounds are listed with their measured z-score values.
Would you mind answering with just the numeric figure?

Reference set (4 entries):
compound	z-score
C=CCC(OC(C)=O)[C@@H]1[C@@H](N(Cc2cc3ccccc3o2)C(=O)c2ccc(C)cc2)c2cc(OCCCO)ccc2N1C(=O)c1ccc(-c2ccccc2)cc1 (stereo partly drawn)	1.46
C=C[C@H](C)[C@H](O)c1ccc(OCCO)cc1	-0.484
CN1C(=O)C2C=CC(C(O)C(c3ccccc3)c3ccccc3)N(Nc3ccccc3)C2C1=O (stereo not drawn)	-1.07
COC(=O)[C@@]1(Cc2ccc(OC)cc2)[C@H]2c3cc(C(=O)N4CCCC4)n(CCc4ccccn4)c3C[C@H]2CN1C(=O)c1ccccc1	-1.7

Req: Look up and report measured z-score for this entry: O=C1NC(=O)C2C1C=CC(C(O)c1cccs1)N2Nc1ccccn1 (stereo not drawn)
Resp: 1.13

Req: Look up and report measured z-score for this entry: CN1C(=O)C2C=CC(C(O)C=Cc3ccc([N+](=O)[O-])cc3)N(N3CCCCC3)C2C1=O (stereo not drawn)
Resp: 0.107

Req: Look up and report measured z-score for this entry: [N-]=[N+]=Nc1ccccc1[C@H]1OC(c2ccc(OCCCO)cc2)=N[C@@]1(CCS(=O)(=O)c1ccccc1)C(=O)N1CCOCC1
Resp: -0.184

Req: Look up and report measured z-score for this entry: COCCCNC(=O)[C@]1(Cc2ccccc2N=[N+]=[N-])N=C(c2ccc(OCCCO)cc2)O[C@@H]1c1ccccc1CN=[N+]=[N-]
Resp: -4.11

----------
Molecular target: Epidermal growth factor receptor (Homo sapiens) (UniProt P00533)
Sequence (P00533 whole entry, looked up): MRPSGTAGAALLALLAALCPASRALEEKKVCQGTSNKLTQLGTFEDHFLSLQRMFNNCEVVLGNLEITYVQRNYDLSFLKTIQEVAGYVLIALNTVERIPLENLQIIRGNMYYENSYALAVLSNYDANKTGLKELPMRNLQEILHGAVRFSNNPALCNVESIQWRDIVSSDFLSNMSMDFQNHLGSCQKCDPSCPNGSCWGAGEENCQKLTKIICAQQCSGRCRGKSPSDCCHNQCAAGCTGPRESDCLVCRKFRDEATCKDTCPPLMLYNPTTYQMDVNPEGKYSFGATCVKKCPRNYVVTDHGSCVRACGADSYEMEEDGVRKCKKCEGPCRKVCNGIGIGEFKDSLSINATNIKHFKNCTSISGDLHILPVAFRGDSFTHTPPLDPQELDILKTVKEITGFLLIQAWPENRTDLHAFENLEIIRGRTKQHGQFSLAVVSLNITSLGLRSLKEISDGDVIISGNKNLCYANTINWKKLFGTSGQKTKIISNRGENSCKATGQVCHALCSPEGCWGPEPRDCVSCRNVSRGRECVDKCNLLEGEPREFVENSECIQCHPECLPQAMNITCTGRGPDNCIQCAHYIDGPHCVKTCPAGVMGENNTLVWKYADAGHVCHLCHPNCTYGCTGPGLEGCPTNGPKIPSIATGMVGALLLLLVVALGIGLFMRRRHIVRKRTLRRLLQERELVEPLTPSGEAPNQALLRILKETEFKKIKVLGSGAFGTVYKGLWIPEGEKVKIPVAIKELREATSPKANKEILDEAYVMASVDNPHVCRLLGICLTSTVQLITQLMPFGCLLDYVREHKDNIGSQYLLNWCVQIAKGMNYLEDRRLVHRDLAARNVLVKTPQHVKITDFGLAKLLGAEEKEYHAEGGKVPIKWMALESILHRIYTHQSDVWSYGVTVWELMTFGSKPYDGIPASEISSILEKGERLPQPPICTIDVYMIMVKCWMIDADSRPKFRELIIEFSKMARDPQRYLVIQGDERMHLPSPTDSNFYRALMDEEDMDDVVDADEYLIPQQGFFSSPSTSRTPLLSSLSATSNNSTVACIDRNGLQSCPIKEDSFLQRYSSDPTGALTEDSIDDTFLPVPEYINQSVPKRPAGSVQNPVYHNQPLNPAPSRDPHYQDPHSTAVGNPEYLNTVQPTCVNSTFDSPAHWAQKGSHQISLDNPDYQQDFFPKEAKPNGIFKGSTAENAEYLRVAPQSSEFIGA
Experiment: compounds binding epidermal growth factor receptor – biochemical, small-molecule microarray, 635 nm fluorescence, primary screen (AID 1104);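 note: score merges 667 nm emission intensity with spot signal to noise over triplicate slides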
Conditions: EGFR binding, higher = more signal
composite z-score of 0.2 or higher: Yes. Under 0.2: No.

compound	answer.label
C=CCNC(=O)[C@@H]1[C@H]2C(=O)O[C@H](c3ccccc3)[C@H](c3ccccc3)N2[C@H](c2ccccc2OCCO)[C@@]12C(=O)N(C(=O)OCCOC)c1ccc(C#CCC(C(=O)OC)C(=O)OC)cc12	Yes
C=C(C(=O)CC[C@@H](OC(=O)c1cccnc1)c1ccc(OCCO)cc1)C(C)C	No
Cc1ccc(S[C@]2(C(=O)NCC(C)C)CC(=O)N(Cc3ccccc3)[C@@H]2c2ccc(CO)cc2)cc1	No

Req: Dear colleague, could you confirm whether O=C1C2C=CC(C(O)c3ccccn3)N(Nc3ccccc3F)C2C(=O)N1c1ccccc1 (configuration not stated) has composite z-score at or above 0.2?
Resp: No

Req: Dear colleague, could you confirm whether O=C1OCC=C[C@H]2OC34C=CCN(c5ccc6ccccc6c5)C(=O)[C@H]3N(CCO)C(=O)[C@@H]4[C@@H]12 (some centres not stated) has composite z-score at or above 0.2?
Resp: No

Req: Dear colleague, could you confirm whether COc1ccc(C(=O)Nc2cccc(CN3C(=O)[C@@]4(O[C@@H](CC(=O)N5Cc6ccccc6C[C@H]5CO)[C@H]([Si](C)(C)c5ccc(OC)cc5)[C@H]4C)c4ccccc43)c2)cc1 has composite z-score at or above 0.2?
Resp: Yes

Req: Dear colleague, could you confirm whether CC(C)[C@H]1COC(=O)N1C(=O)[C@H]1[C@@H](c2ccccc2)N(c2ccccc2)O[C@@H]1C has composite z-score at or above 0.2?
Resp: Yes

Req: Dear colleague, could you confirm whether CN1C(=O)C2C=CC(C(O)C(c3ccccc3)c3ccccc3)N(Nc3ccccc3)C2C1=O (configuration not stated) has composite z-score at or above 0.2?
Resp: Yes

Req: Dear colleague, could you confirm whether CC1CC/C=C\[C@H]2OC34C=CCN(CCN5CCOCC5)C(=O)[C@H]3N(CCCCCO)C(=O)[C@@H]4C2C(=O)O1 (some centres not stated) has composite z-score at or above 0.2?
Resp: No

Req: Dear colleague, could you confirm whether C=C(CCCC)/C(=C/C[C@@H](OC(=O)c1ccncc1)c1ccc(CO)o1)c1cc(C(=O)OC)ccc1OC has composite z-score at or above 0.2?
Resp: Yes

Req: Dear colleague, could you confirm whether COc1ccc([Si](C)(C)[C@@H]2[C@@H](CC(=O)N3Cc4ccccc4C[C@H]3CO)O[C@]3(C(=O)N(Cc4cccc(N5C(=O)COc6ccccc65)c4)c4ccccc43)[C@H]2C)cc1 has composite z-score at or above 0.2?
Resp: Yes

Req: Dear colleague, could you confirm whether COCCCNC(=O)[C@]1(Cc2ccccc2N=[N+]=[N-])N=C(c2ccc(OCCCO)cc2)O[C@@H]1c1ccccc1CN=[N+]=[N-] has composite z-score at or above 0.2?
Resp: Yes

This collection of values is drawn from PubChem BioAssay.
